- method: Tmax in Sprague-Dawley rat at 20 mg/kg, po measured upto 48 hrs by UPLC-triple quadrupole MS analysis
- Type: ADME, organism-based
- condition-notes: in vivo
measured-endpoint: Tmax (h)

>  <molecule>
O=C(/C=C/C(=O)Nc1ccc(NC(=O)c2ccc([N+](=O)[O-])o2)cc1)NCCCCCCNc1cccc2c1C(=O)N(C1CCC(=O)NC1=O)C2=O (stereo unspecified)

>  <measurement-units>
h

>  <observed-measurement>
3.71

$$$$

###

- method: Apparent volume of distribution in Sprague-Dawley rat at 2 mg/kg, iv measured upto 48 hrs by UPLC-triple quadrupole MS analysis
- Format: ADME, organism-based
- condition-notes: in vivo, read-out: Vz

>  <compound>
O=C(/C=C/C(=O)Nc1ccc(NC(=O)c2ccc([N+](=O)[O-])o2)cc1)NCCCCCCNc1cccc2c1C(=O)N(C1CCC(=O)NC1=O)C2=O (stereo unspecified)

>  <Vd [L/kg]>
38

$$$$

###

- method: AUC (0 to t) in Sprague-Dawley rat at 20 mg/kg, po measured upto 48 hrs by UPLC-triple quadrupole MS analysis
- Type: ADME, organism-based
- Design: dose 20 mg/kg, time < 48 hrs, route po
- condition-notes: in vivo
measured-endpoint: AUC(0-t) at 48 h (ng·h/mL)

>  <molecule>
O=C(/C=C/C(=O)Nc1ccc(NC(=O)c2ccc([N+](=O)[O-])o2)cc1)NCCCCCCNc1cccc2c1C(=O)N(C1CCC(=O)NC1=O)C2=O (stereo unspecified)

>  <measurement-units>
ng·h/mL

>  <observed-measurement>
52.2

$$$$

###

- method: Oral bioavailability in Sprague-Dawley rat at 20 mg/kg measured upto 48 hrs by UPLC-triple quadrupole MS analysis
- Format: ADME, organism-based
- condition-notes: in vivo
measured-endpoint: bioavailability (%)

>  <molecule>
O=C(/C=C/C(=O)Nc1ccc(NC(=O)c2ccc([N+](=O)[O-])o2)cc1)NCCCCCCNc1cccc2c1C(=O)N(C1CCC(=O)NC1=O)C2=O (stereo unspecified)

>  <observed-measurement>
2.15

$$$$

###

- method: Cmax in Sprague-Dawley rat at 20 mg/kg, po measured upto 48 hrs by UPLC-triple quadrupole MS analysis
- Type: ADME, organism-based
- Set-up: time < 48 hrs, dose 20 mg/kg, route po
- condition-notes: in vivo
measured-endpoint: Cmax (ng/mL)

>  <compound>
O=C(/C=C/C(=O)Nc1ccc(NC(=O)c2ccc([N+](=O)[O-])o2)cc1)NCCCCCCNc1cccc2c1C(=O)N(C1CCC(=O)NC1=O)C2=O (stereo unspecified)

>  <measurement-units>
ng/mL

>  <observed-measurement>
8.37

$$$$
